- Experimental details: AUC in human at 50 to 1500 mg, po
- Assay type: ADME, organism-based
- Condition details: plasma

Molecule	AUC, ng·h/mL
O=[N+]([O-])c1cn2c(n1)OC[C@@H](OCc1ccc(OC(F)(F)F)cc1)C2	7500

====

- Experimental details: Tmax in smear positive tuberculosis patient
- Type: ADME, organism-based
- Condition details: human, in vivo

Molecule	Tmax
C[C@]1(COc2ccc(N3CCC(Oc4ccc(OC(F)(F)F)cc4)CC3)cc2)Cn2cc([N+](=O)[O-])nc2O1	4 h

====

- Experimental details: Half life in mouse serum at 100 mg/kg
- Format: ADME, organism-based
- Set-up: dose 100 mg/kg
Reported property: half-life (h)

Molecule	Experimental value
COc1c(N2CC3(CC3)[C@](C)(N)C2)c(F)cc2c(=O)c(C(=O)O)cn([C@@H]3C[C@@H]3F)c12	1.51
